- STUDY_SYSTEM: MARK4A (Homo sapiens)
- Construct: purchased in-house DSF kinase panel (SGC-style construct names; the trailing letter is the construct ID)
- Sequence (Q96L34 59-310): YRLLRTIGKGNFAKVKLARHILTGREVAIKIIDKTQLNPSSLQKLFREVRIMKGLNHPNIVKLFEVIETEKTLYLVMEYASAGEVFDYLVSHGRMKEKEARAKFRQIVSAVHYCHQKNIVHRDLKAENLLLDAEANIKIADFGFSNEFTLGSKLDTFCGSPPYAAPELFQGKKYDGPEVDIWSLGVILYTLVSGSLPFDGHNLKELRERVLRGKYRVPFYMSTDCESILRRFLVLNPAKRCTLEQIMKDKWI
- TEST_DESCRIPTION: DSF Tm panel
- Type: binding
- MEASUREMENT_CONTEXT: 10 μM compound
MEASUREMENT_NAME: ΔTm at 10 µM (°C)

Example results:
[ask] # lookup: ΔTm at 10 µM of O=C(NCc1ccc(Cl)cc1F)Nc1ccc2cc1OCCOCCNc1ccn3ncc-2c3n1 [compound 21]
[reply] 2.6

[ask] Then this compound: COc1ccc(CNC(=O)Nc2ccc3cc2OCCOCCNc2ccn4ncc-3c4n2)cc1 [compound 31]
[reply] 2

[ask] Then this compound: COc1cc(CNC(=O)Nc2ccc3cc2OCCOCCNc2ccn4ncc-3c4n2)ccc1F [compound 33]
[reply] 2.2

[ask] Then this compound: O=C(NCc1ccccc1)Nc1ccc2cc1OCCOCCNc1ccn3ncc-2c3n1 [compound 16]
[reply] 1.7

[ask] Then this compound: C[C@H](NC(=O)Nc1ccc2cc1OCCOCCNc1ccn3ncc-2c3n1)c1ccccc1 [compound 34]
[reply] 0.9

[ask] Then this compound: Cc1ccc(F)cc1CNC(=O)Nc1ccc2cc1OCCOCCNc1ccn3ncc-2c3n1 [compound 26]
[reply] 1.9

[ask] Then this compound: O=C(NCc1ccc(C(F)(F)F)cc1)Nc1ccc2cc1OCCOCCNc1ccn3ncc-2c3n1 [compound 28]
[reply] 2.7

[ask] Then this compound: COc1cccc(CNC(=O)Nc2ccc3cc2OCCOCCNc2ccn4ncc-3c4n2)c1 [compound 30]
[reply] 1.5

[ask] Then this compound: COc1ccccc1CNC(=O)Nc1ccc2cc1OCCOCCNc1ccn3ncc-2c3n1 [compound 29]
[reply] 1.9

[ask] Then this compound: O=C(NCc1ccc(Cl)cc1Cl)Nc1ccc2cc1OCCOCCNc1ccn3ncc-2c3n1 [compound 20]
[reply] 2

[I] COc1ccc(CNC(=O)Nc2ccc3cc2OCCOCCNc2ccn4ncc-3c4n2)cc1F [compound 32]
[II] Cc1cc(Cl)ccc1CNC(=O)Nc1ccc2cc1OCCOCCNc1ccn3ncc-2c3n1 [compound 23]
[III] CN1CCN(C(=O)Nc2ccc3cc2OCCOCCNc2ccn4ncc-3c4n2)CC1 [compound 35]
[ask] Arrange items by their ΔTm at 10 µM values in increasing order. A ranking is expressed here by listing the labels in the requested order.
[reply] III, II, I
(III: 0.8 °C, II: 1.5 °C, I: 2.5 °C)

[a] O=C(NCc1ccccc1C(F)(F)F)Nc1ccc2cc1OCCOCCNc1ccn3ncc-2c3n1 [compound 27]
[b] O=C(NCc1cccc(Cl)c1)Nc1ccc2cc1OCCOCCNc1ccn3ncc-2c3n1 [compound 18]
[ask] Lower ΔTm at 10 µM: a or b ? Your answer should be the label of the entry you select.
[reply] b

###

- STUDY_SYSTEM: MST4A (Homo sapiens)
- Construct: purchased in-house DSF kinase panel (SGC-style construct names; the trailing letter is the construct ID)
- Sequence (Q9P289 1-300): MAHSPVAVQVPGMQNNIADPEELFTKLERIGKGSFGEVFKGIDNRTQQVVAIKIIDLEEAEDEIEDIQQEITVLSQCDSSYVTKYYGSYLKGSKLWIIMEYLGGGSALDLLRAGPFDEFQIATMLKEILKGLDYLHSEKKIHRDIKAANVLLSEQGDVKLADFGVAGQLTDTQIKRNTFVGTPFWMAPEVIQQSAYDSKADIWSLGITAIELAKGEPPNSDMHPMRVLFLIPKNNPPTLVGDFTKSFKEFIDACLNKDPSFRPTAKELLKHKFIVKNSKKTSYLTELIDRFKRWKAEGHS
- TEST_DESCRIPTION: DSF Tm panel
- Format: binding
- MEASUREMENT_CONTEXT: 10 μM compound
MEASUREMENT_NAME: ΔTm at 10 µM (°C)

[ask] # lookup: ΔTm at 10 µM of O=C(NCc1ccc(Cl)cc1)Nc1ccc2cc1OCCOCCNc1ccn3ncc-2c3n1 [compound 19]
[reply] 1.1

[ask] Then this compound: Cc1cc(Br)ccc1CNC(=O)Nc1ccc2cc1OCCOCCNc1ccn3ncc-2c3n1 [compound 24]
[reply] 1.2

[ask] Then this compound: COc1cc(CNC(=O)Nc2ccc3cc2OCCOCCNc2ccn4ncc-3c4n2)ccc1F [compound 33]
[reply] 1.2

[I] Cc1ccc(F)cc1CNC(=O)Nc1ccc2cc1OCCOCCNc1ccn3ncc-2c3n1 [compound 26]
[II] Cc1cc(Cl)ccc1CNC(=O)Nc1ccc2cc1OCCOCCNc1ccn3ncc-2c3n1 [compound 23]
[ask] Larger number for ΔTm at 10 µM: I , or II ? Your answer should be the label of the entry you select.
[reply] II

[1] O=C(NCc1ccc(Cl)cc1F)Nc1ccc2cc1OCCOCCNc1ccn3ncc-2c3n1 [compound 21]
[2] O=C(NCc1ccccc1Cl)Nc1ccc2cc1OCCOCCNc1ccn3ncc-2c3n1 [compound 17]
[ask] Larger number for ΔTm at 10 µM: 1 , or 2 ? Your answer should be the label of the entry you select.
[reply] 1
(1: 1.1 °C, 2: 0.7 °C)
